// data source = patent US10047059B2

targetOrTestSystem: BRAF V600E (Homo sapiens, UniProt P15056, V600E)
Construct: purchased Invitrogen
Sequence (P15056 whole entry V600E): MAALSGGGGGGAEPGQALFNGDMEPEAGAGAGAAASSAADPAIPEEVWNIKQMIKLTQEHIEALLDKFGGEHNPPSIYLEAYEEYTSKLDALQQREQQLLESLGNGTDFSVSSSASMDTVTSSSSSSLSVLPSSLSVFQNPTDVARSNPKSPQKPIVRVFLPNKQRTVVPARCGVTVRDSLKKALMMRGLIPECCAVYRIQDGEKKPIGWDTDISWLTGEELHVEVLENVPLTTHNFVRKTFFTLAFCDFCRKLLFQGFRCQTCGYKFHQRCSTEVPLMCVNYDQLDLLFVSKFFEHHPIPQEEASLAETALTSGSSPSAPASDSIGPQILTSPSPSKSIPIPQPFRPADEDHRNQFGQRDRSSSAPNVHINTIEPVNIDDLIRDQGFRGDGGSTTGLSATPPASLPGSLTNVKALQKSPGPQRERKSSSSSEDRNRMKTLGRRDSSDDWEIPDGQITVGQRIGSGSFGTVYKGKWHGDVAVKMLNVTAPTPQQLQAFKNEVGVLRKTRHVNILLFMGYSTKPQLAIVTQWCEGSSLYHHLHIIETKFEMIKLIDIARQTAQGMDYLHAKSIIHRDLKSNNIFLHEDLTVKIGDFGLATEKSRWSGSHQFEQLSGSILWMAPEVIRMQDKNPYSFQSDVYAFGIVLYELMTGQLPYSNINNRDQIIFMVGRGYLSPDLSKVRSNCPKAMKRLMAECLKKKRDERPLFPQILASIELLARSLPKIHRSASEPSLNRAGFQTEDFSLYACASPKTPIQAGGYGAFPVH
methodSummary: Z'-LYTE kinase inhibition assay against BRAF V600E
Format: biochemical
testParameters: % inhibition at 1 μM, Z'-LYTE method
Procedure: Inhibitory activities Inhibitory activities of compounds against BRAF, and BRAF V600E were measured by Invitrogen using Z′-LYTE® Method as briefly described in the following. 4× Test compounds are dissolved in 1% DMSO. […] Fluorescence was read by plate reader. IC50 was calculated by plotting the concentration of compound vs the percentage of inhibition in treated wells using GraphPad Prism 5. […]
Recorded inhibition at 1 µM values for a group of compounds are listed next.

O=C(Nc1cccc(C(F)(F)F)c1)Nc1ccc(C(=O)c2ccc3ncc(N4CCOCC4)nc3c2)c(F)c1 [Compound C24] : < 70%
O=C(Nc1ccc(C(=O)c2ccc3ncc(N4CCNCC4)nc3c2)cc1)Nc1ccc(Cl)c(C(F)(F)F)c1 [Compound C12] : 70 to 89%
O=C(Nc1ccc(C(=O)c2ccc3nccnc3c2)cc1)Nc1cccc(F)c1 [Compound C02] : < 70%
O=C(Nc1ccc(C(=O)c2ccc3ncc(C4CCNCC4)nc3c2)cc1)Nc1cccc(C(F)(F)F)c1 [Compound C27] : 70 to 89%
O=C(Nc1ccc(C(=O)c2ccc3ncc(N4CCNCC4)nc3c2)cc1)Nc1ccc(F)c(C(F)(F)F)c1 [Compound C14] : > 89%
O=C(Nc1ccc(C(=O)c2ccc3ncc(N4CCNCC4)nc3c2)cc1)Nc1cccc(C(F)(F)F)c1 [Compound C17] : > 89%
N#Cc1ccc(NC(=O)Nc2ccc(C(=O)c3ccc4ncc(N5CCOCC5)nc4c3)c(F)c2)cc1C(F)(F)F [Compound C18] : 70 to 89%

Turning to the following compound.
Data request: Could you share which inhibition at 1 µM value was measured for O=C(Nc1ccc(C(=O)c2ccc3ncc(N4CCNCC4)nc3c2)cc1)Nc1cccc(Cl)c1 [Compound C11] ?
Data returned: > 89%
